Molecular target: Potassium voltage-gated channel subfamily KQT member 1 (Homo sapiens) (UniProt P51787)
Sequence (P51787 whole entry, looked up): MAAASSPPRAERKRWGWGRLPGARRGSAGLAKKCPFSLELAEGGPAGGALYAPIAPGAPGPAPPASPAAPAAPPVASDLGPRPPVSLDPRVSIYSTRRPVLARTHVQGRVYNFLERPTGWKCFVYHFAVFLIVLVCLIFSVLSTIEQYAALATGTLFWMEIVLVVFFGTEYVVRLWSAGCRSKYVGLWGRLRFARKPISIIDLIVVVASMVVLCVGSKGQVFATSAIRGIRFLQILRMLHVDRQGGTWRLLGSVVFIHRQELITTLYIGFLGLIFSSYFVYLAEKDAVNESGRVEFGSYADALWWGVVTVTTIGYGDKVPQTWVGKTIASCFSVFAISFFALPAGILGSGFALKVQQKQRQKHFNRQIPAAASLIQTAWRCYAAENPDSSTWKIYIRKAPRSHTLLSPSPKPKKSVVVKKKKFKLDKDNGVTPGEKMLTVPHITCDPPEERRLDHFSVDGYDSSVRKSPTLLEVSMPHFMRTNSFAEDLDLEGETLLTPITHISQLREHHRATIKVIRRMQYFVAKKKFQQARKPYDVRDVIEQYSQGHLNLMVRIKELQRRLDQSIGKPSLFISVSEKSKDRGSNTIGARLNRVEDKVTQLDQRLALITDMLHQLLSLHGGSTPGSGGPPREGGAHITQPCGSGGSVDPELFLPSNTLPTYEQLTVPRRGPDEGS
Assay: KCNQ1 potassium channel potentiators, confirmation, FluxOR thallium flux, CHO cells, duplicates (AID 493007)
Conditions: KCNQ1 cell line, FluxOR thallium flux fluorescence, at 10 µM, % of reference activator effect, buffer zero
Calls of active or inactive are those of the source.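 How the source made its calls: active means potentiation averaged over duplicate wells exceeding buffer-only control mean by more than 3 SD; inactive means the rest.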
Entry note: the call must match one of active, inactive

Req: I would be grateful if you could indicate the recorded call for COc1ccccc1NC(=O)C(=O)NNC(=O)c1ccco1 .
Resp: active

Req: I would be grateful if you could indicate the recorded call for O=C(/C=C/c1ccco1)NC(=S)Nc1ccccc1O .
Resp: inactive

Req: I would be grateful if you could indicate the recorded call for CCCCNC(=S)NC(=O)c1ccc([N+](=O)[O-])cc1 .
Resp: active

Req: I would be grateful if you could indicate the recorded call for COc1cccc(C=O)c1OCCCOc1cccc2cccnc12 .
Resp: inactive

Req: I would be grateful if you could indicate the recorded call for O=C(NC(=S)Nc1cccc(Cl)c1N1CCCCC1)c1ccco1 .
Resp: active

Req: I would be grateful if you could indicate the recorded call for COc1cc(-c2nnc(COC(=O)c3cccn3C)o2)cc(OC)c1OC .
Resp: inactive

Req: I would be grateful if you could indicate the recorded call for COC(=O)c1c(NS(=O)(=O)c2ccc3ccccc3c2)sc2c1CCCC2 .
Resp: active

Req: I would be grateful if you could indicate the recorded call for COc1cc(NC(=S)N2CCC(C(O)(c3ccccc3)c3ccccc3)CC2)cc(OC)c1 .
Resp: active

Req: I would be grateful if you could indicate the recorded call for Cc1ccc2cccnc2c1NC(=S)NC(=O)c1ccccc1 .
Resp: inactive

Req: I would be grateful if you could indicate the recorded call for O=C(COc1ccccc1)NC(=S)Nc1ccc(Br)cn1 .
Resp: active

Req: I would be grateful if you could indicate the recorded call for COc1ccc(C(=O)CC(=O)C(=O)Nc2ccc(C)c(Cl)c2)cc1 .
Resp: active

Req: I would be grateful if you could indicate the recorded call for CCN(CC)S(=O)(=O)c1cc(OC)ccc1N=Nc1ccc(O)c2ncccc12 .
Resp: active

Req: I would be grateful if you could indicate the recorded call for CC(C)(C)c1cc(CCC(=O)NNC(=S)NC(=O)c2ccccc2)cc(C(C)(C)C)c1O .
Resp: active

Req: I would be grateful if you could indicate the recorded call for Cc1nn2c(c1-c1ccccc1)NC1=C(C(=O)CCC1)C2c1ccccc1 (stereo unspecified) .
Resp: inactive

Req: I would be grateful if you could indicate the recorded call for CCCCN(CCCC)c1cn[nH]c(=O)c1Cl .
Resp: inactive

Req: I would be grateful if you could indicate the recorded call for CCCN1CCC(NC(=S)Nc2cccc(Cl)c2Cl)CC1 .
Resp: inactive

Req: I would be grateful if you could indicate the recorded call for CCN1CCN(c2ccc(S(=O)(=O)N3CCCC3)cn2)CC1 .
Resp: inactive

Req: I would be grateful if you could indicate the recorded call for Cc1ccc(C)c(S(=O)(=O)NCC(=O)N2CCCC2)c1 .
Resp: inactive

Req: I would be grateful if you could indicate the recorded call for C/C(=N\NC(=S)Nc1cccc(C)c1)c1ccco1 .
Resp: active

Req: I would be grateful if you could indicate the recorded call for CCOC(=O)N1CCN(C(=S)NC(=O)c2ccc(F)c(F)c2)CC1 .
Resp: inactive

Req: I would be grateful if you could indicate the recorded call for CN1CCN(C=Nc2nc3ccccc3nc2N2CCCC2)CC1 .
Resp: inactive

Req: I would be grateful if you could indicate the recorded call for CCC1(c2ccc(Cl)cc2)NC(=S)N(c2ccccc2)N1 (stereo unspecified) .
Resp: active

Req: I would be grateful if you could indicate the recorded call for CCOC(=O)c1ccc(N2C(=O)c3n[nH]c(C)c3C2c2ccccn2)cc1 (stereo unspecified) .
Resp: inactive

Req: I would be grateful if you could indicate the recorded call for COC(=O)c1c(NC(=S)Nc2ccccc2Cl)sc(C)c1C .
Resp: inactive

Req: I would be grateful if you could indicate the recorded call for O=C(NC(=S)Nc1nc2ccccc2s1)c1ccco1 .
Resp: active

Req: I would be grateful if you could indicate the recorded call for O=C(CSc1nnnn1-c1ccc(F)cc1)Nc1ccc(N2CCOCC2)c(Cl)c1 .
Resp: inactive

Req: I would be grateful if you could indicate the recorded call for O=C(O)c1cnn(-c2ccccc2)c1-c1ccncc1 .
Resp: active

Req: I would be grateful if you could indicate the recorded call for COc1ccc(/C=C2/SC(=S)N(NS(=O)(=O)c3ccccc3)C2=O)cc1 .
Resp: active

Req: I would be grateful if you could indicate the recorded call for CCOC(=O)CS(=O)(=O)c1nc(-c2ccc(F)cc2)cc(C(F)(F)F)n1 .
Resp: inactive

Req: I would be grateful if you could indicate the recorded call for CN(CC(=O)Nc1c(Cl)cccc1Cl)C(=O)c1n[nH]c2ccccc12 .
Resp: inactive

Req: I would be grateful if you could indicate the recorded call for NC(=O)c1cccc(N=Cc2cc(Cl)cc(Cl)c2O)c1 .
Resp: active

Req: I would be grateful if you could indicate the recorded call for COc1ccc(CNC(=O)CSc2nc3ccc(OC)cc3[nH]2)cc1 .
Resp: inactive

Req: I would be grateful if you could indicate the recorded call for O=C(N/N=C/c1ccc([N+](=O)[O-])o1)c1sc2ccccc2c1Cl .
Resp: inactive

Req: I would be grateful if you could indicate the recorded call for O=C(NC(=S)N1CCCc2ccccc21)c1ccc(Br)cc1 .
Resp: active

Req: I would be grateful if you could indicate the recorded call for CNC(C)C#Cc1ccc2sc3cccc(OC)c3c(=O)c2c1 (stereo unspecified) .
Resp: inactive

Req: I would be grateful if you could indicate the recorded call for CSc1ccccc1C(=O)NC1CCCc2ccccc21 (stereo unspecified) .
Resp: inactive

Req: I would be grateful if you could indicate the recorded call for COCCn1cnc2c1c(=O)n(CC#N)c(=O)n2Cc1ccccc1 .
Resp: inactive

Req: I would be grateful if you could indicate the recorded call for Cc1onc(-c2ccccc2Cl)c1C(=O)Nc1ccccc1O .
Resp: inactive

Req: I would be grateful if you could indicate the recorded call for CC(C)c1ccc(OCC(=O)NNC(=S)NC(=O)c2cccs2)c(Br)c1 .
Resp: active

Req: I would be grateful if you could indicate the recorded call for CC1CCCCC1NC(=S)NC(=O)c1cccs1 (stereo unspecified) .
Resp: active

Req: I would be grateful if you could indicate the recorded call for COc1ccc(/C=N/NC(=O)c2[nH]nc3c2CCc2ccccc2-3)cc1OC .
Resp: active

Req: I would be grateful if you could indicate the recorded call for COc1cc2c(cc1OC)CN(C(=O)COc1ccccc1[N+](=O)[O-])CC2 .
Resp: inactive

Req: I would be grateful if you could indicate the recorded call for CCOC(=O)C1CCN(C(=O)COc2cc(C)c(Br)c(C)c2)CC1 .
Resp: inactive

Req: I would be grateful if you could indicate the recorded call for O=C(CNC(=O)c1sc2ccccc2c1Cl)OCc1ccccc1 .
Resp: inactive

Req: I would be grateful if you could indicate the recorded call for COc1ccc(Cl)cc1C(=O)NNC(=S)NC(=O)c1cc(-c2ccccc2)nc2ccccc12 .
Resp: inactive

Req: I would be grateful if you could indicate the recorded call for CCC1(c2ccccc2)NC(=O)N(CC(=O)Nc2ccccc2C(=O)N2CCCCC2)C1=O (stereo unspecified) .
Resp: inactive

---

System: TRPC4 beta (transient receptor potential cation channel C4), mouse
Assay: positive allosteric modulators of mouse TRPC4, confirmation, cell-based, Fluo-4, HEK293 TRPC4beta/mu-opioid (AID 2555)
Details: DAMGO EC20, Fluo-4 calcium flux, at 10 µM
The source made the active and inactive calls.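 The calls were made as follows: active = primary screen hit whose calcium fluorescence ratio, in both repeats, exceeds the weak agonist control mean by 3 SD; inactive = the rest.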
Entry note: the call must match one of 1 for active, 0 for inactive

Req: I would be grateful if you could indicate the recorded call for Cc1ccccc1C(=O)Nc1c(C(=O)N(CCN(C)C)Cc2ccco2)oc2ccccc12 .
Resp: 0

Req: I would be grateful if you could indicate the recorded call for CCOC(=O)C1(CC2CCCCO2)CCN(Cc2c(C)cc(C)cc2-n2cccn2)CC1 (stereo not given) .
Resp: 0

Req: I would be grateful if you could indicate the recorded call for COc1ccc(Cl)cc1NC(=O)CNCC(c1ccccc1)N(C)C (stereo not given) .
Resp: 0

Req: I would be grateful if you could indicate the recorded call for Cc1cccc(C)c1OCC(O)CN (stereo not given) .
Resp: 0

Req: I would be grateful if you could indicate the recorded call for CCOC(=O)C1=NN(C(=O)c2ccc(C)cc2)C(O)(c2ccc(Cl)cc2)C1 (stereo not given) .
Resp: 0

Req: I would be grateful if you could indicate the recorded call for COc1ccc(/C=C/C(=O)Nc2ccccc2C(=O)NCC(c2ccc(OC)cc2)N(C)C)cc1 (stereo not given) .
Resp: 0

Req: I would be grateful if you could indicate the recorded call for O=c1c2cc(Br)ccc2nc(-c2cccc(C(F)(F)F)c2)n1O .
Resp: 0

Req: I would be grateful if you could indicate the recorded call for CCn1cc(CN2CCCC(C(=O)Nc3ccc(-c4nc5ccccc5[nH]4)cc3)C2)c(C)n1 (stereo not given) .
Resp: 0

Req: I would be grateful if you could indicate the recorded call for CCCOc1ccc(C(=O)NNC(=S)NC(=O)c2ccccc2)cc1 .
Resp: 0

Req: I would be grateful if you could indicate the recorded call for O=C(NCCCN1CCN(CCCNC(=O)c2ccc3c(c2)OCO3)CC1)c1ccc2c(c1)OCO2 .
Resp: 0

Req: I would be grateful if you could indicate the recorded call for Cn1c(-c2cccc3ccccc23)n[nH]c1=S .
Resp: 0

Req: I would be grateful if you could indicate the recorded call for CN(C)CCCN(C(=O)c1ccc(S(=O)(=O)N(C)C2CCCCC2)cc1)c1nc2ccc(F)cc2s1 .
Resp: 0

Req: I would be grateful if you could indicate the recorded call for O=C1CC(O)(C(F)(F)F)Oc2c1ccc1ccccc21 (stereo not given) .
Resp: 0

Req: I would be grateful if you could indicate the recorded call for CN(C)C(CNC(=O)C1CCN(S(=O)(=O)c2cccc(C(F)(F)F)c2)CC1)c1ccccc1 (stereo not given) .
Resp: 0

Req: I would be grateful if you could indicate the recorded call for CNCCCOc1ccc2c(c1)CCC2 .
Resp: 1

Req: I would be grateful if you could indicate the recorded call for Cc1ccc(S(=O)(=O)NCCC(=O)NCC(c2ccco2)N2CCCCC2)cc1C (stereo not given) .
Resp: 0

Req: I would be grateful if you could indicate the recorded call for c1ccc2c(c1)CCN(c1ncnc3c1[nH]c1ccccc13)C2 .
Resp: 0

Req: I would be grateful if you could indicate the recorded call for Cc1ccc(-n2cc(CNCCc3ncc(C)[nH]3)c(-c3ccc(F)cc3)n2)cc1 .
Resp: 0

Req: I would be grateful if you could indicate the recorded call for Cc1ccc(C(=O)NC(=S)NNC(=O)c2ccccc2)cc1 .
Resp: 0

Req: I would be grateful if you could indicate the recorded call for CCCCCSc1nnc2c(n1)OC(c1cccn1C)N(C(C)=O)c1ccccc1-2 (stereo not given) .
Resp: 0

Req: I would be grateful if you could indicate the recorded call for COc1ccc(C(CNC(=O)c2cc(SC)ccc2Cl)N(C)C)cc1 (stereo not given) .
Resp: 0

Req: I would be grateful if you could indicate the recorded call for CC(=O)N1CCc2cc(Br)cc(S(=O)(=O)NCCCN(C)Cc3ccccc3)c21 .
Resp: 0

Req: I would be grateful if you could indicate the recorded call for CN(C)C(CNC(=O)CCc1c[nH]c2ccccc12)c1ccccc1 (stereo not given) .
Resp: 0

Req: I would be grateful if you could indicate the recorded call for Cc1cc(NCc2ccccc2)nc2ccccc12 .
Resp: 0

Req: I would be grateful if you could indicate the recorded call for Fc1ccc(C2CCNCC2COc2ccc3c(c2)OCO3)cc1 (stereo not given) .
Resp: 0

Req: I would be grateful if you could indicate the recorded call for Clc1ccc(OCCNCCc2ccccc2)cc1 .
Resp: 0

Req: I would be grateful if you could indicate the recorded call for Cc1csc2c(N3CCN(C(=S)Nc4ccc(F)cc4F)CC3)ncnc12 .
Resp: 0

Req: I would be grateful if you could indicate the recorded call for CN(C)C(CNC(=O)Cc1cccc(C(F)(F)F)c1)c1ccco1 (stereo not given) .
Resp: 0

Req: I would be grateful if you could indicate the recorded call for CCN(CCCNS(=O)(=O)c1cc(-c2cc(C)no2)ccc1C)Cc1ccccc1 .
Resp: 0

Req: I would be grateful if you could indicate the recorded call for CCOc1ccccc1CN1CCNC(=O)C1CC(=O)N(C)CCc1ccccn1 (stereo not given) .
Resp: 0

Req: I would be grateful if you could indicate the recorded call for CN(C)CCCN(C(=O)c1ccc(S(=O)(=O)N(C)C)cc1)c1nc2ccc(F)cc2s1 .
Resp: 0

Req: I would be grateful if you could indicate the recorded call for Cc1onc(-c2c(F)cccc2Cl)c1C(=O)N1CCN(c2ncc(Br)cn2)CC1 .
Resp: 0

Req: I would be grateful if you could indicate the recorded call for COc1cc(OC)c(CN2CCC(Cc3ccccc3)CC2)cc1Br .
Resp: 0

Req: I would be grateful if you could indicate the recorded call for Cc1cc(C)c(C)c(OCCCN(C)C)c1 .
Resp: 0

Req: I would be grateful if you could indicate the recorded call for O=C(C[n+]1cc2ccccc2c2ccccc21)c1ccccc1 .
Resp: 0
